System: PXR:RXRa (NR concentration 270 nM, RXRa partner concentration 90 nM)
Experiment: PBM binding z-score (relative to random genomic background probes); higher = stronger binding; sequences stand for … in GC…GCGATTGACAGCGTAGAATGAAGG
Short version: PBM binding z-score at least 2 is Met, less is Not met.

Please review the entries below; each comes with its answer.
{"columns": ["Biosequence", "System", "Label value"],
 "data": [
  ["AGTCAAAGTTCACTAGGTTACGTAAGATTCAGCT", "PXR:RXRa (NR concentration 270 nM, RXRa partner concentration 90 nM)", "Met"],
  ["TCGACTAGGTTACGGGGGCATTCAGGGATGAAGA", "PXR:RXRa (NR concentration 270 nM, RXRa partner concentration 90 nM)", "Met"],
  ["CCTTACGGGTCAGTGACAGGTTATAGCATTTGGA", "PXR:RXRa (NR concentration 270 nM, RXRa partner concentration 90 nM)", "Met"],
  ["CCTACTGGGCCAAGGTCATTGCTCAGTCAAAGCA", "PXR:RXRa (NR concentration 270 nM, RXRa partner concentration 90 nM)", "Met"],
  ["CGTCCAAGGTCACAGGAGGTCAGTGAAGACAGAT", "PXR:RXRa (NR concentration 270 nM, RXRa partner concentration 90 nM)", "Met"],
  ["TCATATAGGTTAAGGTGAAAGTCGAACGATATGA", "PXR:RXRa (NR concentration 270 nM, RXRa partner concentration 90 nM)", "Not met"],
  ["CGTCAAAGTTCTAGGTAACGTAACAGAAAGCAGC", "PXR:RXRa (NR concentration 270 nM, RXRa partner concentration 90 nM)", "Not met"],
  ["CGATGTAGGTTAAGGGGGTCATTCAGTTTGAAAG", "PXR:RXRa (NR concentration 270 nM, RXRa partner concentration 90 nM)", "Met"],
  ["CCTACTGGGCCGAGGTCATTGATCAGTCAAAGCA", "PXR:RXRa (NR concentration 270 nM, RXRa partner concentration 90 nM)", "Met"],
  ["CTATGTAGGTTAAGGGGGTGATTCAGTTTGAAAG", "PXR:RXRa (NR concentration 270 nM, RXRa partner concentration 90 nM)", "Met"]
]}

q: Hello, I need to know if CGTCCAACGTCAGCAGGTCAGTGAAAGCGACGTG has measured PBM binding z-score not below 2. Thanks!
a: Not met

q: Hello, I need to know if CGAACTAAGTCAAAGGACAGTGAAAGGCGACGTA has measured PBM binding z-score not below 2. Thanks!
a: Not met

q: Hello, I need to know if CGAACTAGGTCACCAGGACAGAGAAGAGGTTGGA has measured PBM binding z-score not below 2. Thanks!
a: Not met

q: Hello, I need to know if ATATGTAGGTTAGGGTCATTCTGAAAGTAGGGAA has measured PBM binding z-score not below 2. Thanks!
a: Met

q: Hello, I need to know if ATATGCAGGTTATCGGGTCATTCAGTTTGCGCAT has measured PBM binding z-score not below 2. Thanks!
a: Met

q: Hello, I need to know if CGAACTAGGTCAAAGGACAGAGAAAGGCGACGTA has measured PBM binding z-score not below 2. Thanks!
a: Not met

q: Hello, I need to know if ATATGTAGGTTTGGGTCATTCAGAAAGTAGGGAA has measured PBM binding z-score not below 2. Thanks!
a: Met
